- System: GCIY (Gastric Carcinoma)
- TEST_PROTOCOL: combination Emax (second highest fraction inhibited in the dose matrix, 72 h); higher = more inhibition; extreme values may be limits of the assay
READOUT_TYPE: combination Emax
Lab note: jot the number down without any unit.

>>> value_measured("CN(C)CCCOc1ccc(-c2ccc3ncc4c(c3c2)n(C2CCOCC2)c(=O)n4C)cn1 [AZD0156] + C[C@@H]1COCCN1C2=NC(=NC(=C2)C3(CC3)[S@](=N)(=O)C)C4=C5C=CNC5=NC=C4 [AZD6738] (first compound max 1 µM, 7x7, partner max 10 µM)")
0.851
>>> value_measured("CCN(CCO)CCCOc1ccc2c(Nc3cc(CC(=O)Nc4cccc(F)c4)[nH]n3)ncnc2c1 [AZD2811] + O=C(c1cc(Cc2n[nH]c(=O)c3ccccc23)ccc1F)N1CCN(C(=O)C2CC2)CC1 [Olaparib] (first compound max 1 µM, 7x7, partner max 10 µM)")
0.427
>>> value_measured("O=C(c1cc(Cc2n[nH]c(=O)c3ccccc23)ccc1F)N1CCN(C(=O)C2CC2)CC1 [Olaparib] + Cc1c2c(nn1C)CSCc1cc(n(C)n1)CSc1cc(c3ccccc3c1)OCCCc1c(C(=O)O)n(C)c3c-2c(Cl)ccc13 [AZD5991] (first compound max 10 µM, 7x7, partner max 1 µM)")
0.181

Query string: Return combination Emax (reported value) for this compound: NC1(C(=O)N[C@@H](CCO)c2ccc(Cl)cc2)CCN(c2ncnc3[nH]ccc23)CC1 [Capivasertib] + Cn1cnc2c(F)c(Nc3ccc(Br)cc3Cl)c(C(=O)NOCCO)cc21 [Selumetinib] (first compound max 10 µM, 7x7, partner max 10 µM)
Result string: 0.512
